Every entry's value here was drawn from patent US20150284331A1.

Target: UniProt P37136
Sequence (P37136 32-614): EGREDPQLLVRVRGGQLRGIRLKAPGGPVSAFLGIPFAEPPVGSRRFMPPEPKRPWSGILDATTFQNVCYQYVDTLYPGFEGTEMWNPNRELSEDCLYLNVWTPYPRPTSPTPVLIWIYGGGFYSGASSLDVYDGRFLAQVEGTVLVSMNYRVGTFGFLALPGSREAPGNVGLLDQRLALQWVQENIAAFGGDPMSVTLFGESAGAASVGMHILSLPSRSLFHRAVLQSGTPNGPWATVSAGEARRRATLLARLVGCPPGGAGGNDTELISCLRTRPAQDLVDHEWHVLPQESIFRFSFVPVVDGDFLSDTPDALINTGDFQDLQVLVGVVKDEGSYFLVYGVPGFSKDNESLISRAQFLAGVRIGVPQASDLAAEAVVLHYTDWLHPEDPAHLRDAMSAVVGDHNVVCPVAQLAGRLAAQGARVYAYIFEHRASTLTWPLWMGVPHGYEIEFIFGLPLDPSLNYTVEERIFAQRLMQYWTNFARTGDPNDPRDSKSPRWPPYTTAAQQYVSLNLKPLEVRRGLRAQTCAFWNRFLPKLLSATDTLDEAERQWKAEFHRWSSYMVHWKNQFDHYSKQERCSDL
Please go through the items and note down their log10 IC50.
# values: log10(IC50), units nM

COc1cc2c(cc1OC)C(=O)C(CC1(F)CCN(Cc3ccccc3Br)CC1)C2 (stereo not drawn) | 0.60
CCCOc1cc2c(cc1OCCC)C(=O)C(CC1(F)CCN(Cc3ccccc3F)CC1)C2 (stereo not drawn) | -0.02
COC(=O)C1CC(F)(CC2Cc3cc(OC)c(OC)cc3C2=O)CCN1Cc1ccccc1F (stereo not drawn) | 1.36
COc1cc2c(cc1OC)C(=O)C(CC1(F)CCN(Cc3ccc(F)cc3)CC1)C2 (stereo not drawn) | 0.43
O=C1c2cc(OC(F)F)c(OC(F)F)cc2CC1CC1(F)CCN(Cc2ccccc2F)CC1 (stereo not drawn) | -0.12

Report log10 IC50 for each item below.
1. COc1cc2c(cc1OC)C(=O)C(CC1(F)CCN(CCc3ccccc3F)CC1)C2 (stereo not drawn)
2. COc1cc2c(cc1OC)C(=O)C(CC1(F)CCN(Cc3ccccc3F)C(C(=O)O)C1)C2 (stereo not drawn)
3. COc1cc2c(cc1OC)C(=O)C(CC1(F)CCN(Cc3ccc(Br)cc3F)CC1)C2 (stereo not drawn)

[0.29, 1.00, 3.85]

Report log10 IC50 for each item below.
1. COc1cc2c(cc1OC)C(=O)C(CC1(F)CCN(Cc3ccc([N+](=O)[O-])cc3)CC1)C2 (stereo not drawn)
2. COc1cc2c(cc1OC)C(=O)C(CC1(F)CCN(Cc3ccccc3F)CC1)C2 (stereo not drawn)

[3.94, -0.07]

###

Molecular target: acetylcholinesterase (Rattus norvegicus, UniProt P37136)
Construct: Acetylcholinesterase: rat cortex; from tissue; host or cells: rat cortex
Assay: biochemical
Format: biochemical
Settings: rat cortex enzyme; final concentration 4×10−5 mol/L
Class assignment keyed on acetylcholinesterase inhibitory activity inhibition ratio (%), ranges low-valued (below 80%), mid-valued (80% to below 90%), high-valued (90% or more)

Worked cases, answers included:
COc1cc2c(cc1OC)C(=O)C(CC1(F)CCN(Cc3ccc(OC(F)(F)F)cc3)CC1)C2 (stereo not drawn) | low-valued
COc1cc2c(cc1OC)C(=O)C(CC1(F)CCN(Cc3ccccc3)CC1)C2 (stereo not drawn) | mid-valued
COc1cc2c(cc1OC)C(=O)C(CC1(F)CCN(Cc3cc(C)cc(C)c3)CC1)C2 (stereo not drawn) | low-valued
COc1cc2c(cc1OC)C(=O)C(CC1(F)CCN(Cc3ccc([N+](=O)[O-])cc3)CC1)C2 (stereo not drawn) | low-valued
COc1cc2c(cc1OC)C(=O)C(CC1(F)CCN(Cc3ccccc3C(F)(F)F)CC1)C2 (stereo not drawn) | high-valued
COC(=O)c1ccc(CN2C3CCC2CC(F)(CC2Cc4cc(OC)c(OC)cc4C2=O)C3)cc1 (stereo not drawn) | mid-valued
COc1cc2c(cc1OC)C(=O)C(CC1(F)CC3CCC(C1)N3Cc1ccccc1F)C2 (stereo not drawn) | high-valued
COc1cc2c(cc1OC)C(=O)C(CC1(F)CCN(Cc3cc(F)cc(F)c3F)CC1)C2 (stereo not drawn) | high-valued
CCCOc1cc2c(cc1OCCC)C(=O)C(CC1(F)CCN(Cc3ccccc3F)CC1)C2 (stereo not drawn) | high-valued
COc1cc2c(cc1OC)C(=O)C(CC1(F)CCN(Cc3cccc(C#N)c3)CC1)C2 (stereo not drawn) | high-valued

Hello team, could you let me know which band the following molecule falls into: COc1cc2c(cc1OC)C(=O)C(CC1(F)CCN(Cc3ccc(C(C)(C)C)cc3)CC1)C2 (stereo not drawn) low-valued

Hello team, could you let me know which band the following molecule falls into: O=C1c2cc(Cl)c(Cl)cc2CC1CC1(F)CCN(Cc2ccccc2F)CC1 (stereo not drawn) low-valued

###

Biological target: butyrylcholinesterase (Rattus norvegicus, UniProt Q9JKC1)
Construct: Butyrylcholinesterase: rat serum; from tissue; host or cells: rat serum
Sequence (Q9JKC1 24-597): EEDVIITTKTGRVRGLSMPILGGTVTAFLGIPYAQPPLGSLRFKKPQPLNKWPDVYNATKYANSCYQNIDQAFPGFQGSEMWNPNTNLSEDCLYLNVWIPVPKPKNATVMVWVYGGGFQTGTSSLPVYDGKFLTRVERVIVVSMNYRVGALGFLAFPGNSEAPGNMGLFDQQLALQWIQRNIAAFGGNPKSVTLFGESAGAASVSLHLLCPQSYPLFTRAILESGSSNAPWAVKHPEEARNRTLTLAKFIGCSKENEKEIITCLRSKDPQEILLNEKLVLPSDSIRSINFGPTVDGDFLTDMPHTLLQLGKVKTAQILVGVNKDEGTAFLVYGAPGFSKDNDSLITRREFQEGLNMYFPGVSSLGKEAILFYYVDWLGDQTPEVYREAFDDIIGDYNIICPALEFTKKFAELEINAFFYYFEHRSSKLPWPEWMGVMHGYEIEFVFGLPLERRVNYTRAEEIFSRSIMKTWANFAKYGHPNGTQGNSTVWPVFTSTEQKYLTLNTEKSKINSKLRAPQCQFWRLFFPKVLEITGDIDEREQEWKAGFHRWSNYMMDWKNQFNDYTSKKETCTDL
Assay: inhibition of butyrylcholinesterase (rat serum)
Type: biochemical
Settings: rat serum enzyme; final concentration 4×10−5 mol/L
Protocol: Sample processing: All samples were formulated as 10-2 mol/L solution by using 100% DMSO. 10-2 mol/L solution was used in microdetermination. 1 μL was taken to use in single tube experiment. Solvent control: 0.4% DMSO was used in microdetermination. The inhibition ratio of the sample was obtained wherein the effect of solvent was deducted. Butyrylcholinesterase: rat serum
Please go through the items and note down their butyrylcholinesterase inhibitory activity inhibition ratio (%).
Value and unit, in that order.

COc1cc2c(cc1OC)C(=O)C(CC1(F)CCN(Cc3cc(F)c(F)cc3F)CC1)C2 (stereo not shown) [DC17] | 49.79%
COc1cc2c(cc1OC)C(=O)C(CC1(F)CCN(Cc3c(F)cccc3[N+](=O)[O-])CC1)C2 (stereo not shown) [DC8] | 49.48%

Report butyrylcholinesterase inhibitory activity inhibition ratio (%) for each item below.
1. COC(=O)C1CC(F)(CC2Cc3cc(OC)c(OC)cc3C2=O)CCN1Cc1ccccc1F (stereo not shown) [DC107]
2. COc1cc2c(cc1OC)C(=O)C(CC1(F)CC3CCC(C1)N3Cc1cc(F)c(F)cc1F)C2 (stereo not shown) [DC57]

75.6%
1017%

###

Target: butyrylcholinesterase (Rattus norvegicus)
Construct: Butyrylcholinesterase: rat serum; from tissue; host or cells: rat serum
Experiment: inhibition of butyrylcholinesterase (rat serum)
Assay type: biochemical
Conditions: rat serum enzyme; final concentration 4×10−5 mol/L
# if value of butyrylcholinesterase inhibitory activity inhibition ratio (%) reaches 5%, tag yes (1); if it stays below, tag no (0)

COC(=O)c1ccc(CN2C3CCC2CC(F)(CC2Cc4cc(OC)c(OC)cc4C2=O)C3)cc1 (centres unmarked) [DC50] | no (0)
CCOc1cc2c(cc1OCC)C(=O)C(CC1(F)CCN(Cc3ccccc3F)CC1)C2 (centres unmarked) [DC77] | yes (1)
COc1cc2c(cc1OC)C(=O)C(CC1(F)CCN(Cc3cccc(C(F)(F)F)c3)CC1)C2 (centres unmarked) [DC30] | yes (1)
COc1cc2c(cc1OC)C(=O)C(CC1(F)CCN(Cc3ccc(Br)cc3F)CC1)C2 (centres unmarked) [DC15] | no (0)
COc1cc2c(cc1OC)C(=O)C(CC1(F)CCN(Cc3ccc(-c4ccccc4)cc3)CC1)C2 (centres unmarked) [DC36] | yes (1)
O=C1c2cc(OCC(F)F)c(OCC(F)F)cc2CC1CC1(F)CCN(Cc2ccccc2F)CC1 (centres unmarked) [DC105] | yes (1)
COc1cc2c(cc1OC)C(=O)C(CC1(F)CC3CCC(C1)N3Cc1c(F)c(F)c(F)c(F)c1F)C2 (centres unmarked) [DC68] | no (0)

Reported butyrylcholinesterase inhibitory activity inhibition ratio (%) reaches at least 5% for O=C1c2cc(OC(F)F)c(OC(F)F)cc2CC1CC1(F)CCN(Cc2ccccc2F)CC1 (centres unmarked) [DC104] ? yes (1)

###

Biological target: acetylcholinesterase (Rattus norvegicus, UniProt P37136)
Construct: Acetylcholinesterase: rat cortex; from tissue; host or cells: rat cortex
Sequence (P37136 32-614): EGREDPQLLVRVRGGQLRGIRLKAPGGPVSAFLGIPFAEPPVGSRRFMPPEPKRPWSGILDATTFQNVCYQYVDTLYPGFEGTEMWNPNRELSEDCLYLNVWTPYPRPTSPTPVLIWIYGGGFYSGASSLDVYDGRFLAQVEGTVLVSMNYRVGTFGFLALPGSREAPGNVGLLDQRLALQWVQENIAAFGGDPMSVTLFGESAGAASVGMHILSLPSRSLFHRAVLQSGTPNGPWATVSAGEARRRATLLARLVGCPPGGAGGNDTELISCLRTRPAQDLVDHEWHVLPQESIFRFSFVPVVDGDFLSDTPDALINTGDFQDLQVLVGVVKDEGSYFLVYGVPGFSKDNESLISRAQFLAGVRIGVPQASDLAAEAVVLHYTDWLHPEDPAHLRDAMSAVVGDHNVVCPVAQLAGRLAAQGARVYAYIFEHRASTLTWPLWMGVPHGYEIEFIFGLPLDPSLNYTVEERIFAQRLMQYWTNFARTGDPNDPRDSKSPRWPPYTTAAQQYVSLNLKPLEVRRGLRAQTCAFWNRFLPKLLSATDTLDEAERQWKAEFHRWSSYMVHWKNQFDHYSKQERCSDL
Test: biochemical
Format: biochemical
Conditions: rat cortex enzyme; final concentration 4×10−5 mol/L
measure name: acetylcholinesterase inhibitory activity inhibition ratio (%)
Numbers only, in %.

The examples below pair each entry with its known result.
COc1cc2c(cc1OC)C(=O)C(CC1(F)CCN(Cc3cccc(C(F)(F)F)c3)CC1)C2 (stereo not shown) | 97.49
COC(=O)C1CC(F)(CC2Cc3cc(OC)c(OC)cc3C2=O)CCN1Cc1ccccc1F (stereo not shown) | 76.03
COc1cc2c(cc1OC)C(=O)C(CC1(F)CC3CCC(C1)N3Cc1ccc(F)cc1)C2 (stereo not shown) | 97.19
COc1cc2c(cc1OC)C(=O)C(CC1(F)CC3CCC(C1)N3Cc1cccc(Br)c1)C2 (stereo not shown) | 85.08
COc1cc2c(cc1OC)C(=O)C(CC1(F)CCN(Cc3ccc(F)cc3F)CC1)C2 (stereo not shown) | 97.34
COc1cc2c(cc1OC)C(=O)C(CC1(F)CC3CCC(C1)N3Cc1cc(F)c(F)cc1F)C2 (stereo not shown) | 96.75
COc1cc2c(cc1OC)C(=O)C(CC1(F)CCN(CCc3ccccc3F)CC1)C2 (stereo not shown) | 92.44
COc1cc2c(cc1OC)C(=O)C(CC1(F)CCN(Cc3cc4c(cc3Br)OCO4)CC1)C2 (stereo not shown) | 97.34
COc1cc2c(cc1OC)C(=O)C(CC1(F)CCN(CCc3ccccc3)CC1)C2 (stereo not shown) | 88.55
COc1cc2c(cc1OC)C(=O)C(CC1(F)CCN(Cc3ccccc3F)C(C)C1)C2 (stereo not shown) | 88.44

Report acetylcholinesterase inhibitory activity inhibition ratio (%) for each item below.
1. COc1cc2c(cc1OC)C(=O)C(CC1(F)CCN(CC3CCCC3)CC1)C2 (stereo not shown)
2. COc1cc2c(cc1OC)C(=O)C(CC1(F)CCN(Cc3ccccc3Br)CC1)C2 (stereo not shown)
3. COc1cc2c(cc1OC)C(=O)C(CC1(F)CCN(Cc3ccc(F)c(F)c3F)CC1)C2 (stereo not shown)

[90.10, 85.03, 98.08]

Report acetylcholinesterase inhibitory activity inhibition ratio (%) for each item below.
1. COc1cc2c(cc1OC)C(=O)C(CC1(F)CCN(CC3CCCCC3)CC1)C2 (stereo not shown)
2. COc1cc2c(cc1OC)C(=O)C(CC1(F)CCN(Cc3cccc(C)c3)CC1)C2 (stereo not shown)
3. COc1cc2c(cc1OC)C(=O)C(CC1(F)CCN(Cc3cc(F)cc(F)c3)CC1)C2 (stereo not shown)
4. COc1cc2c(cc1OC)C(=O)C(CC1(F)CCN(CC3CCCCCC3)CC1)C2 (stereo not shown)

1: 90.10; 2: 97.78; 3: 97.34; 4: 95.57
